# study system: Mitogen-activated protein kinase kinase kinase 5 (Homo sapiens)
# experiment summary: blockers of MAP3K5 kinase activity – biochemical, AlphaScreen, primary screen (AID 1159602);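 further: 0% = median of compound wells and 100% = no enzyme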
# condition notes: AlphaScreen MKK6 phosphorylation by ASK1, luminescence; at 7.44 µM
Among all 22,000 compounds or so, about 220 (1%) were called active. No stated cut-off is given here; in the data, active means inhibition above about 35%; inactive means the rest. The entries come from a sample that favours actives as a whole.
Output constraint: value belongs to class 1 for active, class 0 for inactive

Examples from the recorded data:
compound	label class
c1ccc(N2CCN(c3nc(NCc4nc5ccccc5[nH]4)c4ncn(-c5ccsc5)c4n3)CC2)nc1	class 0
c1ccc(-c2ncn[nH]2)c(Nc2ccnc(Nc3ccc(N4CCOCC4)cc3)c2)c1	class 1
CN1CCN(c2nc(C3COc4ccccc4O3)nc3ccc(-c4cn[nH]c4)cc23)CC1 (stereo unspecified)	class 1
Cc1cnc(Nc2cnccn2)nc1NCc1cccnc1	class 0
Nc1cccc(-c2nc(NCCc3ccc(O)cc3)c3ncn(Cc4ccc(C(F)(F)F)cc4)c3n2)c1	class 0

Prompt: Entry `Cn1c(Nc2nc(NCCN3CCOCC3)c3ncn(-c4ccccc4)c3n2)nc2ccccc21` : call = ?
Response: class 0

Prompt: Proceed to `FC(F)(F)c1cccc(CNc2nc(N3CCN(Cc4ccc5c(c4)OCO5)CC3)nc3c2ncn3-c2ccccc2)c1`
Response: class 1

Prompt: Proceed to `FC(F)(F)c1ccc(Cn2cnc3c(Nc4ccc(Oc5ccccc5)cc4)nc(N4CCOCC4)nc32)cc1`
Response: class 0

Prompt: Proceed to `COC(=O)c1cccc(-n2ncc3cc(Nc4ccccc4)ccc32)c1`
Response: class 0

Prompt: Proceed to `c1ccc(CNc2nc(N3CCN(c4ccccn4)CC3)nc3c2ncn3-c2ccsc2)cc1`
Response: class 0

Prompt: Proceed to `COc1cc(Nc2nc(NCc3cccc(C(F)(F)F)c3)c3ncn(-c4ccsc4)c3n2)cc(OC)c1OC`
Response: class 0

Where these numbers come from: PubChem BioAssay AID1159602
